Can you tell me Yap1 mRNA, % UTC for the items I'm about to list?
Test system: Yap1 mRNA
Assay: Dose-dependent inhibition of human Yap1 in A-431 cells (Example 7, 10,000 cells per well, RTS36584)
Assay type: cell-based
Settings: Table 57, 62.5 nM, free uptake, A-431 cells 10,000 cells per well, 48 hours
Strand notation (5' to 3'): a small letter for the sugar, then the base; units joined by * are phosphorothioate-linked, units joined directly phosphodiester-linked; [ ] holds rarer units or linkages, { } end groups; capitals alone tell only the bases. k = constrained ethyl (cEt); [5mC] = 5-methylcytosine; d = 2'-deoxy (DNA)
Give your result as the value with the unit written after it.

// worked examples, Yap1 mRNA, % UTC included
{"columns": ["SUBSTANCE", "Yap1 mRNA, % UTC"],
 "data": [
  ["958556 (k[5mC]*kA*kA*d[5mC]*d[5mC]*dA*dA*d[5mC]*dT*dA*dT*dT*dA*k[5mC]*kT*kT; antisense) [compound 958556]", "95 % UTC"],
  ["715483 (k[5mC]*kT*k[5mC]*dT*dT*dT*dG*dG*dA*dA*dA*d[5mC]*d[5mC]*kA*kT*kT) [compound 715483]", "45 % UTC"],
  ["958616 (kG*kG*kT*dG*dG*dT*d[5mC]*dT*dT*dG*dT*dT*d[5mC]*kT*kT*kA; antisense) [compound 958616]", "49 % UTC"],
  ["958731 (kG*k[5mC]*kT*d[5mC]*dT*dG*dT*d[5mC]*dA*dG*dT*dT*dA*kT*k[5mC]*k[5mC]; antisense) [compound 958731]", "64 % UTC"],
  ["958491 (kA*k[5mC]*kT*dA*dA*dA*dT*dG*d[5mC]*dT*dG*dT*dG*kA*k[5mC]*kA; antisense) [compound 958491]", "65 % UTC"]
]}

State the recorded Yap1 mRNA, % UTC for every item in the following list.
1. 958551 (k[5mC]*kT*k[5mC]*d[5mC]*dT*dG*dT*dA*dG*dA*d[5mC]*dA*d[5mC]*kA*kT*kA; antisense) [compound 958551]
2. 958546 (k[5mC]*kA*kT*dA*d[5mC]*dT*d[5mC]*dT*dA*dG*dT*dT*dA*k[5mC]*kA*kT; antisense) [compound 958546]
3. 958466 (kG*kT*k[5mC]*dA*dT*dT*dA*dA*dG*dG*dA*dT*dG*kT*k[5mC]*kA; antisense) [compound 958466]
4. 958481 (kG*k[5mC]*kA*dA*d[5mC]*dT*dG*dG*d[5mC]*dT*dT*dA*dT*kG*kG*kA; antisense) [compound 958481]

73 % UTC
72 % UTC
81 % UTC
62 % UTC
